The compounds listed here are annotated with their TGI.
Test system: M14 melanoma
Test: NCI tumour cell line growth inhibition, 48 h
readoutName: TGI

1) COC1CC(OC)C(O)C(CO)O1 (stereo not given) | > 100 µM
2) CCOP(=O)(OCC)C(F)(F)Cc1cnc(C)c2c1COC(C)(C)O2 | > 10 µM
3) CCCN1C(=O)CNC(=O)c2[nH]cnc21 | > 100 µM
4) C/C(=N/NC(N)=S)C(CN(C)C)C(C1=C(O)c2ccccc2OC1)c1ccccc1 (stereo not given) | > 100 µM
5) C=C(CN)CO[Si](C)(C)C(C)(C)C | > 100 µM

---

Tested on: SK-MEL-2 melanoma
Experiment: NCI tumour cell line growth inhibition, 48 h
readoutName: GI50

1. O=C(NCCCCCCNC(=O)OCc1ccc2c(Cl)cc(Cl)c(O)c2n1)OCc1ccc2c(Cl)cc(Cl)c(O)c2n1 | 1450 nM
2. COc1ccc2nc3ccccc3c(NCc3ccc(C)cc3)c2c1 | 1850 nM
3. CN1CCN(CC(=O)N2c3cccc4cccc(c34)N(C(=O)CN3CCN(C)CC3)C2c2cn(-c3ccccc3)nc2-c2cccc([N+](=O)[O-])c2)CC1 | 1950 nM
4. Oc1c(CN2CCN(c3ccccc3F)CC2)cc(Br)c2cccnc12 | 7650 nM
5. COc1cc(C)c(NC(=O)CN(C)C)cc1Nc1nc(Nc2cccc(F)c2C(N)=O)c2cc[nH]c2n1 | 479 nM

---

Reported TGI by item:
System: TK-10 renal
Assay: NCI tumour cell line growth inhibition, 48 h
readoutName: TGI

1. O=S(O)c1cc(Cl)cc(Cl)c1OCc1ccccc1 | > 100 µM
2. O=C(O)c1ccc(NNC(=O)c2cccc3c(=O)c4ccccc4[nH]c23)cc1 | > 100 µM
3. Cc1cn(C2CC(NC(=NCC3OC(n4cnc5c(N)ncnc54)CC3O)NC#N)C(CO)O2)c(=O)[nH]c1=O (stereo not drawn) | > 100 µM

---

Tested on: CCRF-CEM leukemia
Assay: NCI tumour cell line growth inhibition, 48 h
Items are presented alongside their recorded TGI.
readoutName: TGI

1) O=C(C=Nc1ccccc1C(=O)[O-])c1cccs1.O=C(C=Nc1ccccc1C(=O)[O-])c1cccs1.[Zn+2] | 65.3 µM
2) O=C1C[C@H](CCC(=O)OCc2ccccc2)NC(=O)C[C@H](CCC(=O)OCc2ccccc2)NC(=O)C[C@H](CCC(=O)OCc2ccccc2)N1 | > 100 µM
3) Cn1sc2ccccc2c1=S | 14.8 µM
4) COc1ccc2nc3ccccc3c(NCc3ccc(C)cc3)c2c1 | 11.4 µM
5) COC(=O)[C@H](COC(=O)/C=C/c1ccc(OC(C)=O)c(OC(C)=O)c1)NC(=O)/C=C/c1ccc(OC(C)=O)c(OC(C)=O)c1 | > 100 µM
6) Nc1ncnc2c1ncn2C1OC(COC2C(CO)OC(OC(C(=O)O)C(O)C(OP(=O)(O)O)C(O)C(=O)O)C(O)C2O)C(O)C1O (stereo unspecified) | > 100 µM
7) COC(=O)[C@@H]1OC(C)(c2ccccc2)O[C@H]1C(=O)OC | > 100 µM
8) Cc1ccc(/C=N/NS(=O)(=O)c2ccc(/C=C3\NC(=O)NC3=O)cc2)cc1 | > 100 µM
9) C=C1C(=O)O[C@H]2[C@H]1CC/C(COC(=O)NCc1cc(OC)cc(OC)c1)=C\CC[C@@]1(C)O[C@@H]21 | 4.36 µM
10) COc1ccc(C2C3=C(COC3=O)Oc3cc4c(cc32)OCO4)cc1 (stereo unspecified) | > 100 µM
11) O=C(Cc1ccccc1)NS(=O)(=O)c1ccccc1 | > 100 µM
12) Cc1cc(N(CCOS(C)(=O)=O)CCOS(C)(=O)=O)ccc1C=Nc1ccc(-c2csc(-c3ccc(Br)cc3)n2)cc1 | > 100 µM
13) CC1(O)Oc2ccc3ccccc3c2C=C1C(N)=O (stereo unspecified) | > 100 µM
14) O=C(O)C1=NN(c2ccc(S(=O)(=O)O)cc2)C2(C1)SCC(=O)N2c1nc2ccccc2s1 (stereo unspecified) | > 100 µM
15) CC(C)C1COC(c2ccc3ccccc3c2-c2c(O[Si](C)(C)C(C)(C)C)ccc3ccccc23)=N1 (stereo unspecified) | 35.5 µM
16) COc1cccc(Nc2nc(N)nc(N)c2N=O)c1 | 93.4 µM
